Origin of the recorded values: PubChem BioAssay AID620

- Test name: HT1080 cell viability loss – fluorescence readout (AID 620);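 also: cells exposed to compound overnight then 4 h with Alamar Blue; 0% = vehicle DMSO and 100% = killing control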
- Details: at 10 µM
Screen size: about 87,000 compounds; about 360 (0.41%) were called active. Rule as the data show it: active = cytotoxicity above about 50%; inactive = the rest. Shown is part of a subset that was picked to be rich in actives.
Outcomes: 1 (yes) (active), 0 (no) (inactive)

COc1ccc(C(=O)Nc2nc3ccccc3[nH]2)cc1OC    0 (no)
OCCc1ccc(-c2ccc(Cl)cc2)o1    0 (no)
CCOc1ccc(S(=O)(=O)N2c3ccccc3CC2C)cc1 (configuration not stated)    1 (yes)
COc1ccc(OC)c(S(=O)(=O)N2c3ccccc3CC2C)c1 (configuration not stated)    0 (no)
O=C(CCl)N(c1ccc(Cl)cc1)c1c[nH]c2ccccc12    1 (yes)
O=C(CCl)N(c1ccccc1)c1c[nH]c2ccccc12    1 (yes)
CCN(CC)CC(=O)c1c[nH]c2ccccc12    0 (no)
COC(=O)Nc1nc2ccc(C(=O)c3ccccc3)cc2[nH]1    1 (yes)
CN(C)CC(=O)c1c[nH]c2ccccc12    0 (no)
COC(=O)Nc1nc2ccc(Sc3ccccc3)cc2[nH]1    1 (yes)
CC(=O)N(c1ccc(Cl)cc1)c1c[nH]c2ccccc12    0 (no)
COc1cc(C(=O)Nc2nc3ccccc3[nH]2)cc(OC)c1OC    0 (no)

* * *

- Test name: HT1080 cell viability loss – fluorescence readout (AID 620)
- Details: at 10 µM, stronger effect = higher value
The whole screen tested about 87,000 compounds, of which about 360 (0.41%) were called active. The full list was thinned out, with actives kept by preference.
Listing of recorded cytotoxicity by entry.
Quantity measured: cytotoxicity (%)

Cc1noc(C)c1S(=O)(=O)N1CCCC(C(=O)NCc2ccccn2)C1 (centres undefined)    3.9
Cc1ccc(C(=O)N2CCC(C(N)=O)CC2)cc1C    -2.5
Cn1cc(Cl)c(C(=O)N/N=C/c2ccc(OS(=O)(=O)c3ccccc3)cc2)n1    6.3
O=C(CCNS(=O)(=O)c1ccccc1F)NCc1ccc2c(c1)OCO2    -0.4

* * *

Each entry below carries its recorded cytotoxicity.
- Test name: HT1080 cell viability loss – fluorescence readout (AID 620)
- Details: at 10 µM, stronger effect = higher value
Screen size: about 87,000 compounds; about 360 (0.41%) were called active. What follows is part of a selection rich in actives, with near analogues and random picks from the rest.
Quantity measured: cytotoxicity (%)

O=C(Nc1cc(C(F)(F)F)ccc1N1CCOCC1)c1c(F)c(F)c(F)c(F)c1F    1.3
N#CC1=C2SCC(O)(c3ccccc3)N2C(=O)CC1c1ccccc1F (configuration not stated)    4.1
N#CC1=C2SCC(O)(c3ccccc3)N2C(=O)CC1c1ccccc1 (configuration not stated)    63.1
CCC(=O)N1c2ccccc2NC2=C(C(=O)CCC2)C1c1cccnc1 (configuration not stated)    -7
Cc1cc(C)n(Cc2ccccc2F)c(=O)c1C#N    4.8
Cc1c(NC(=O)c2ccccc2)c(=O)n(-c2ccccc2)n1C    -12.6
CCn1c(CC(=O)Nc2ccccc2)nnc1SCC(=O)Nc1ccccc1C(=O)OC    0.7
Cc1ccc2nc(SCC(=O)Nc3cc(C(F)(F)F)ccc3N3CCOCC3)[nH]c2c1    62.5
CCOc1cccc(N2C(=O)CC(N3CCC(C(N)=O)(N4CCCCC4)CC3)C2=O)c1 (configuration not stated)    -6.9
CCOc1ccc(C(=O)Cc2ccc3oc(C(=O)O)cc3c2)c(O)c1    -8.8
COCCCNC(=O)CC(NS(=O)(=O)c1ccc(Cl)cc1)c1ccco1 (configuration not stated)    -9.5
C[C@@H](C(=O)NCCc1c[nH]c2ccccc12)[C@@H]1C[C@@]1(C)[C@@H](NC(=O)OCc1ccccc1)c1ccccc1    0.9
COC(=O)C1=[N+]([O-])OC(C(=O)OC)C1c1c[nH]c2ccccc12 (configuration not stated)    41.5
COC(=O)c1cc2ccsc2n1CC(=O)N(C)c1ccccc1    -3.5
Nc1nc(SCc2ccc(Cl)cc2)ns1    -0.5
COC(=O)c1cc2ccsc2n1Cc1cc(=O)n2ccccc2n1    60.2
Cn1c(=O)c2c(nc(SCCCC#N)n2Cc2c(F)cccc2Cl)n(C)c1=O    1.4
N#CC1=C(N)Oc2c(ccc3ccccc23)C1c1cccs1 (configuration not stated)    65.3
Cc1onc(-c2ccccc2)c1C(=O)Nc1ccccc1N1CCOCC1    3.3
Cc1onc(-c2ccccc2)c1C(=O)Nc1cc(C(F)(F)F)ccc1N1CCOCC1    59.2
O=C(c1ccco1)N1CCCC(c2nc(-c3ccc(S(=O)(=O)NCc4ccccc4)cc3)no2)C1 (configuration not stated)    -1.4
O=C(c1cnn2cccnc12)N1CCN(c2ccccc2)CC1    6.5

* * *

- Test name: HT1080 cell viability loss – fluorescence readout (AID 620);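 also: cells exposed to compound overnight then 4 h with Alamar Blue; 0% = vehicle DMSO and 100% = killing control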
- Details: at 10 µM
About 360 (0.41%) of roughly 87,000 compounds were called active. No stated cut-off is given here; in the data, active means cytotoxicity above about 50%; inactive means the rest. The list comes from a sample in which actives are over-represented; it also holds close analogues and randomly drawn compounds.
Labels: label 1 for active, label 0 for inactive

CCOC(=O)N1CCN(C(=O)c2ccc3c(c2)sc2nc(-c4ccccc4)cn23)CC1    label 0
CCOC(=O)N1CCC(NC(=O)c2ccc3c(c2)sc2nc(-c4cccc(OC)c4)cn23)CC1    label 0
COc1ccc(NC(=O)c2nc3nccc(C)n3n2)cn1    label 0
O=C(CCN1C(=O)C2C3C=CC(C3)C2C1=O)N1CCN(c2ccc(F)cc2)CC1 (stereo not given)    label 0
COc1ccc2c(c1)sc1nc(-c3ccccc3)cn12    label 1

* * *

- Test name: HT1080 cell viability loss – fluorescence readout (AID 620);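 also: cells exposed to compound overnight then 4 h with Alamar Blue; 0% = vehicle DMSO and 100% = killing control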
- Details: at 10 µM
The whole screen tested about 87,000 compounds, of which about 360 (0.41%) were called active. Cut-off read from the data, not from the text of the source: active = cytotoxicity above about 50%; inactive = the rest. This excerpt belongs to a sample that is enriched for actives.
Outcomes: active, inactive

CC(=O)c1ccc(NC(=O)CSc2nc3nc(C)cc(C)n3n2)cc1    inactive
Cc1c(C(=O)OC2CCC(C)CC2)[nH]c2c1C(=O)CCC2 (stereo not drawn)    inactive
CCOc1ccc(N(CC(=O)Nc2ccccc2C)S(=O)(=O)c2c(C)noc2C)cc1    active
O=S(=O)(Nc1ccccn1)c1ccc(Cl)cc1    inactive
Cn1cnc([N+](=O)[O-])c1NC(C)(C)C    inactive
Cc1ccc(NC(=O)/C(C#N)=C/c2cccs2)c(C)c1    inactive
CCOc1ccc(N(CC(=O)NC(C)(C)C)S(=O)(=O)c2c(C)noc2C)cc1    inactive
COc1cc(NC(=O)COc2ccc(F)cc2)nc(OC)n1    inactive
CCOc1ccc(N(CC(=O)Nc2ccc(C)cc2)S(=O)(=O)c2c(C)noc2C)cc1    inactive
Cc1ccc(Nc2cc(C)nn2-c2nc(C)cc(=O)[nH]2)cc1    active
Cc1cccc(OCCn2c(NC(=O)c3ccco3)nc3ccccc32)c1    inactive
C=Cn1c(C(=O)O)cc(CC)c1-c1ccccc1    inactive
COc1ccc(N(CC(=O)Nc2cc(C)ccc2OC)S(=O)(=O)c2c(C)noc2C)cc1    inactive
O=c1[nH]c2ccccc2nc1N1CCOCC1    inactive
CC(=O)Nc1ccccc1-c1nn[nH]n1    inactive
CCOc1ccccc1NC(=O)CN(c1ccc(C)cc1)S(=O)(=O)c1c(C)noc1C    inactive
CC(C)CNC(=O)C1CCN(c2ccc(S(=O)(=O)N3CCOCC3)cc2Cl)CC1    inactive
Cn1c(SCc2ccon2)nc2ccccc2c1=O    inactive
CCOc1ccccc1NC(=O)CN(c1cc(C)cc(C)c1)S(=O)(=O)c1c(C)noc1C    inactive
Cn1c(=O)[nH]c(=O)c2c1nc1n2CCCS1    inactive
COc1ccc(OC)c(NC(=O)CN(c2ccc(C)cc2)S(=O)(=O)c2c(C)noc2C)c1    inactive
CCOCCCn1c(SCC(=O)Nc2ccc(C(N)=O)cc2)nc2ccccc2c1=O    inactive
Nc1nc(NCc2ccccc2)nc(-c2ccccc2)n1    inactive

* * *

Quick list: cytotoxicity per entry.
- Test name: HT1080 cell viability loss – fluorescence readout (AID 620);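 also: cells exposed to compound overnight then 4 h with Alamar Blue; 0% = vehicle DMSO and 100% = killing control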
- Details: at 10 µM, stronger effect = higher value
Out of some 87,000 compounds screened, about 360 (0.41%) were called active. This excerpt belongs to a sample that is enriched for actives.
Quantity measured: cytotoxicity (%)

COc1ccc2c(Cl)c(-c3nnc4n3CCCCC4)sc2c1    -8.8
O=S(=O)(c1cccc(-c2csc(-c3ccccc3)n2)c1)N1CCOCC1    2
CCOC(=O)N1CCC(NC(=O)C2CCCN(S(=O)(=O)c3ccc4c(c3)oc(=O)n4C)C2)CC1 (stereo not drawn)    -2.4
COc1ccc(OC)c(S(=O)(=O)n2nc(-c3ccccc3)cc2N)c1    -6.1
O=C1CCC(=O)N1c1ccccc1-c1ccccc1    -0.5
Brc1ccc(-c2cn3c(n2)CCc2ccc4cccnc4c2-3)cc1    53.1
Nc1[nH]c(=S)[nH]c(=O)c1-c1ccccc1    -5
COC(=O)c1cc(NS(=O)(=O)c2ccc(OC)c(OC)c2)ccc1Cl    3.3
O=C(CCl)Nc1cc(-c2ccccc2)nn1-c1ccccc1    54.1
CC(=O)N1CCc2cc(S(=O)(=O)NC(C(=O)Nc3nc(C)cs3)C(C)C)ccc21 (stereo not drawn)    11.9
c1ccc(-c2cn3c(n2)CCc2ccc4cccnc4c2-3)cc1    37
O=C(Nc1ccc(N2CCN(C(=O)c3ccccc3)CC2)c(Cl)c1)c1ccco1    -4.5
CC(=O)N1CCCc2cc(S(=O)(=O)N(CC(C)C)CC(C)C)ccc21    -25.7
CC(=O)Nc1cc(-c2ccc(Cl)cc2)nn1-c1ccccc1    1.4
CCc1cc(C)c(O)c(CC)n1    -4.2
CCc1c(C)sc(NC(=O)C2CCCO2)c1C#N (stereo not drawn)    0.6
COc1ccc(S(=O)(=O)n2nc(-c3cc(OC)c(OC)c(OC)c3)cc2N)cc1OC    1.5
Brc1ccc(-c2cn3cccnc3n2)cc1    9.4
Cc1cc(NC(=O)COc2ccccc2)n(-c2ccccc2)n1    7.7
COc1ccc(-c2cc(N)n(S(=O)(=O)c3c(F)c(F)c(F)c(F)c3F)n2)cc1OC    59.5
COc1ccccc1N1CCN(Cc2nc(N)nc(Nc3ccc(C)cc3)n2)CC1    -2.7
Cc1cc(C)n(/N=C\c2c(O)ccc3ccccc23)c(=O)c1C(N)=O    0
c1ccc(CSc2ncccn2)cc1    4.3
